The reader will find reported solubility values listed item by item below.
# test.method.notes: Solubility of compound in FaSSIF
# Format: physicochemical
State just the number; it will be interpreted in µM.

// worked examples, solubility included
1) O=C(O)c1ccc(CN2CCC[C@H](O[C@H](CO)c3cc(Cl)cc(Cl)c3)[C@@H]2c2ccccc2)c([N+](=O)[O-])c1 ... 112
2) Nc1cc(C(=O)O)ccc1CN1CCC[C@H](O[C@H](CO)c2cc(Cl)cc(Cl)c2)[C@@H]1c1ccccc1 ... 137

q: Request the reported solubility associated with Cc1cc(C(=O)O)ccc1CN1CCC[C@H](O[C@H](CO)c2cc(Cl)cc(Cl)c2)[C@@H]1c1ccccc1
a: 36

====

# test.method.notes: Protein binding in Wistar Han male rat plasma at 0.05 mg/kg, iv and measured upto 8 hrs post dose by LC-MS/MS analysis
# Format: ADME, organism-based
# recorded.conditions: read-out: PPB (converted)
property.measured: fraction unbound at 8 h
Answer as a number with no unit attached.

q: Request the reported fraction unbound at 8 h associated with Nc1cc(C(=O)O)ccc1CN1CCC[C@H](O[C@H](CO)c2cc(Cl)cc(Cl)c2)[C@@H]1c1ccccc1
a: 0.002

====

The reader will find reported EC50 values listed item by item below.
# system: cGMP-dependent protein kinase 1 (Homo sapiens, UniProt Q13976)
# Sequence (Q13976 whole entry): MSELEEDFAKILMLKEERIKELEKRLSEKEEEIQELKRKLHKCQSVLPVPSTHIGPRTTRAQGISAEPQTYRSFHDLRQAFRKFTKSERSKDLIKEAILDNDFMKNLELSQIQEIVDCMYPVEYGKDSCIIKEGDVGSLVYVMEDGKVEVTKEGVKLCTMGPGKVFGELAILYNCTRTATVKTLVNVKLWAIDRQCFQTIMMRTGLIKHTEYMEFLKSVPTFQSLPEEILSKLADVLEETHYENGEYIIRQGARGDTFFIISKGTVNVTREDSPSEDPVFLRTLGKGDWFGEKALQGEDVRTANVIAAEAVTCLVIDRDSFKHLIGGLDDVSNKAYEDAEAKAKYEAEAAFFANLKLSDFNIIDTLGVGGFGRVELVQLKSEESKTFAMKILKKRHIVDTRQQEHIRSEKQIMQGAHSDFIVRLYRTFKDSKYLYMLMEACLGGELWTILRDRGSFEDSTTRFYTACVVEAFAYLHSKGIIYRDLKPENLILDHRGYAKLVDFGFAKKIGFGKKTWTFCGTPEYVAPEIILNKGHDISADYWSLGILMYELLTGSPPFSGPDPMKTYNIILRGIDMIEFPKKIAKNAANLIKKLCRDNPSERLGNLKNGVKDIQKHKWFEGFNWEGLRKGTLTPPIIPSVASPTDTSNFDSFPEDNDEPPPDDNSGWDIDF
# test.method.notes: Activation of basal state recombinant PKG1alpha (unknown origin) using Glass-tide peptide substrate incubated for 30 mins followed by ATP addition and measured after 2 hr by ADP-GLO Max Assay
State just the number; it will be interpreted in µM.

// worked examples, EC50 included
1. O=C(O)c1ccc(CN2CCC[C@H](O[C@H](CO)c3cc(Cl)cc(Cl)c3)[C@@H]2c2ccccc2)cc1 ... 77
2. Cc1cc(C(=O)O)ccc1CN1CC[C@H](OC(CO)c2cc(Cl)cc(Cl)c2)[C@@H]1c1ccccc1 (stereo partly specified) ... 185

# evaluate next
q: Request the reported EC50 associated with Cc1cc(C(=O)O)ccc1CN1C(C)CC[C@H](O[C@H](CO)c2cc(Cl)cc(Cl)c2)[C@@H]1c1ccccc1 (stereo partly specified)
a: 130
